assayTarget: Proteasome subunit beta (Trypanosoma cruzi) (UniProt O96673)
assaySummary: Trypanosoma cruzi proteasome chymotrypsin-like activity (TcProtChymo) assay. Further: in the data most compounds retested in dose-response had high values.
Format: functional
Parameters: scale not given: direction of the effect not stated beside the values
appliedConditions: 9.37 µM
Under this convention, criterion met denotes Percent Effect strictly below 9% and criterion not met denotes Percent Effect at or above 9%.

Is the reported Percent Effect for Cn1cccc1CNC(=O)CCCc1nnc2ccccn12 strictly below 9%?
criterion not met

Thanks! And CC(C)(CNC(=O)OC(C)(C)C)NC(=O)C1CC(=O)N(C2CC2)C1 (centres undefined) ?
criterion met

Thanks! And CCOc1ccc(N(CC(=O)c2ccccc2)C2=NCCCCC2)cc1 ?
criterion met

Thanks! And CSc1ccc(NC(=O)Nc2ccc3c(c2)N(S(C)(=O)=O)CC3)cc1 ?
criterion not met

Thanks! And COc1ccc(CCN2CCC(N3CCN(C)C3=O)CC2)cc1 ?
criterion met

Thanks! And CCc1nc(CC(=O)N2CCOCC2c2ncon2)cs1 (centres undefined) ?
criterion met

Thanks! And COCc1nc(C(=O)N2CCCC2c2ccccc2C)cs1 (centres undefined) ?
criterion not met

Thanks! And Cc1cc(C[C@@H]2CCC[C@H]2NCc2cc(C)c(O)c(C)c2)on1 ?
criterion not met

Thanks! And COc1ccc(NC(=O)C(c2cccc(F)c2)N2CCOCC2)cc1 (centres undefined) ?
criterion not met

Thanks! And CCc1nc(CN(C)CC(c2cccs2)N2CCOCC2)no1 (centres undefined) ?
criterion not met

Thanks! And CC(C)c1nc(C2CCCN2C(=O)c2ccc(N(C)C)nn2)no1 (centres undefined) ?
criterion met

Thanks! And CCc1ncc2c(n1)CN(Cc1nc(-c3ccccn3)no1)CC2 ?
criterion met

Thanks! And CCC(C)CNc1ccc2oc(COC)nc2c1 (centres undefined) ?
criterion not met

Thanks! And O=C1NCC2(CCCN(Cc3ccccc3F)C2)Oc2ccccc21 (centres undefined) ?
criterion not met

Thanks! And CCN(CC)S(=O)(=O)N1CCCC(c2ccc(C(=O)O)cc2)C1 (centres undefined) ?
criterion met

Thanks! And Cc1nc(C)n(CC2CCCN(c3ncnc4ccsc34)C2)n1 (centres undefined) ?
criterion not met

Thanks! And O=C(NCCN1CCCc2ccccc21)c1scnc1Cl ?
criterion met

Thanks! And CCc1csc(C2CCCN(C(=O)c3ccc(OC)nn3)C2)n1 (centres undefined) ?
criterion met

Thanks! And O=C(N[C@@H]1CN(c2ncccn2)[C@@H]2CCCO[C@@H]21)c1cnccn1 ?
criterion not met

Thanks! And CN(CCCc1cnn(C)c1)C(=O)C1COc2ccccc2C1 (centres undefined) ?
criterion not met

Thanks! And Cc1cccc(C)c1OCCNC(=O)NC(C)c1nncn1C (centres undefined) ?
criterion not met

Thanks! And O=C(O)CC1CN(Cc2ccccc2)CCO1 (centres undefined) ?
criterion not met

Thanks! And CC(C)Oc1ncnc2c1CCN(Cc1cccs1)CC2 ?
criterion met

Thanks! And CCc1noc(C)c1C(=O)N(C)Cc1ncc(C)c(OC)c1C ?
criterion met

Thanks! And NC(=O)C(CNC(=O)Cc1ccc(F)cc1)Cc1ccc(F)cc1 (centres undefined) ?
criterion not met

====

assayTarget: Proteasome subunit beta (Trypanosoma cruzi)
Sequence (whole entry): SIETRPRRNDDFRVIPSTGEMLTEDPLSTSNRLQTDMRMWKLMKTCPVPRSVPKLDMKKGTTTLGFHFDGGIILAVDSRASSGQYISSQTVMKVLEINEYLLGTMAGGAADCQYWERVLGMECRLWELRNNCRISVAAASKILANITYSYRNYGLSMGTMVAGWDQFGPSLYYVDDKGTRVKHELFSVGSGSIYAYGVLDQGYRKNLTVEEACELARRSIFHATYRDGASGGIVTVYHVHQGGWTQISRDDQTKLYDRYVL
assaySummary: Trypanosoma cruzi proteasome chymotrypsin-like activity (TcProtChymo) assay. Further: in the data most compounds retested in dose-response had high values.
Format: functional
Parameters: scale not given: direction of the effect not stated beside the values
appliedConditions: 9.37 µM
Under this convention, Satisfied denotes Percent Effect strictly below 10% and Not satisfied denotes Percent Effect at or above 10%.

Is the reported Percent Effect for NC(=O)C1CCN(Cc2cccc(NC(=O)c3ccsc3)c2)CC1 strictly below 10%?
Satisfied

Thanks! And Cc1ccc2c(ccn2CCC(=O)NC[C@@H]2CCCN3CCCC[C@H]23)c1 ?
Not satisfied

Thanks! And COc1ccc(NC(C)C(=O)NCCc2cccs2)cc1F (stereo not drawn) ?
Not satisfied

Thanks! And O=C(Nc1cccnc1)N1CCC(n2ccc(C(F)(F)F)n2)CC1 ?
Not satisfied

Thanks! And CCCNC(=O)Cn1nc(C(C)C)c2cnn(C(C)(C)C)c2c1=O ?
Not satisfied

Thanks! And CN(Cc1ccc(F)cc1)C(=O)NCc1nnc2n1CCCCC2 ?
Satisfied

Thanks! And COC(=O)CCC(=O)N1CCC2(CN(Cc3cccc(F)c3)C2)C1 ?
Satisfied

Thanks! And CCN(c1ccc(C(=O)N2CCCC(C)C2)cc1)S(=O)(=O)CC (stereo not drawn) ?
Satisfied

Thanks! And O=C(COc1coc(CN2CCOCC2)cc1=O)c1ccc(Cl)cc1 ?
Not satisfied

Thanks! And Cc1cnn(CC2CN(Cc3nccn3C)CCO2)c1 (stereo not drawn) ?
Satisfied

Thanks! And Cc1ccc(C(C)N(C)Cc2nc3c(cnn3C)c(=O)[nH]2)cc1 (stereo not drawn) ?
Not satisfied

====

Organism: Homo sapiens
assaySummary: To identify inhibition of the IFN signalling (Jak-Stat) pathway via expression of an eGFP reporter gene under the control of an IFN-stimulated response element (ISRE) containing MxA promoter.
Format: functional
Set-up: scale not given: direction of the effect not stated beside the values
appliedConditions: 30 µM
Task for the reader: assign each of the following compounds its reported Percent Effect.
# output: bare number, implied unit %

# Percent Effect lookup, item Cc1ccc(N2CCCC(NCC(=O)Nc3cc(C)no3)C2)nn1 (stereo unspecified)
17.8

Thanks! And Cn1c(CC2CCS(=O)(=O)C2)nnc1SCCOc1cccc(Cl)c1 (stereo unspecified) ?
-7.24

Thanks! And O=C(Nc1ccccn1)C1=NN(c2ccccc2)C(=O)CN1 ?
9.82

Thanks! And Cc1noc(Cl)c1CC(=O)N1CCCC(n2cccn2)C1 (stereo unspecified) ?
-4.99

Thanks! And COc1cc(C(=O)N(CCC#N)Cc2ccccn2)cc(OC)c1C ?
6.76

Thanks! And O=C(c1cnco1)N1C[C@@H]2CC[C@H](Oc3cccc(F)c3)[C@@H]2C1 ?
9.56

Thanks! And CC(C)C1CN(C(=O)c2ccc(N3CCCC3)nc2)CCS1 (stereo unspecified) ?
-12.6

Thanks! And c1ncn(CC2CCCN(Cc3nc(C4CC4)no3)C2)n1 (stereo unspecified) ?
-5.79

Thanks! And COc1ncccc1NC(=O)N1CCC(CNC(C)=O)CC1 ?
20.5

Thanks! And CC(C)Oc1ccc(CNC(=O)CC(F)(F)F)cc1F ?
-11.2

Thanks! And Cn1cccc1C(=O)N1CCc2ncnc(N3CCCC3)c2CC1 ?
8.45

====

assayTarget: Sialic acid-binding Ig-like lectin 9 (Homo sapiens) (UniProt Q9Y336)
Sequence (Q9Y336 whole entry): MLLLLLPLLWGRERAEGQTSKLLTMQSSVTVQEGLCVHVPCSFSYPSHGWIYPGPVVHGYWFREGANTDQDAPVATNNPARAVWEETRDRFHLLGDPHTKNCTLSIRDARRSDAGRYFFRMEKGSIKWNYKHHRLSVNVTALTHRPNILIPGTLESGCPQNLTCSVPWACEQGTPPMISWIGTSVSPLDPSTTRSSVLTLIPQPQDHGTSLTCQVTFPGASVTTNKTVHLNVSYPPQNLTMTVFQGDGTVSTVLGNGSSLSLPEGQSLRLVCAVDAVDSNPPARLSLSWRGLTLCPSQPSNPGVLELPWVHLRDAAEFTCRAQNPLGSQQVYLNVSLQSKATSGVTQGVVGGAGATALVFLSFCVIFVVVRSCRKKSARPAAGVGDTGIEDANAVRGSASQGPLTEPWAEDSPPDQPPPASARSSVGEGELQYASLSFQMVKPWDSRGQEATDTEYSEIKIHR
assaySummary: Hs-Siglec9 ALPHAscreen SOP 20170721
Parameters: scale not given: direction of the effect not stated beside the values
appliedConditions: 10 µM
endpoint: Percent Effect (%)
# output: bare number, implied unit %

# Percent Effect lookup, item CN(CCNC(=O)NCc1ccncc1)C1CCCC1
1.79

Thanks! And CNS(=O)(=O)c1cccc(CNc2cc(C(F)(F)F)ccn2)c1 ?
-1.96

Thanks! And Cc1cccc(-c2ccc(C(=O)NCC(C)(C)C(N)=O)c(=O)[nH]2)c1 ?
17.1

Thanks! And CC(C)C1CN(C(=O)c2ccc(N3CCCC3)nc2)CCS1 (stereo not given) ?
2.6

Thanks! And Cc1ccc(-n2nnc(C(=O)Nc3cc(C)nn3C)c2C2CC2)cc1 ?
-1.73

====

assayTarget: Tyrosyl-tRNA synthetase, putative (Trypanosoma cruzi (strain CL Brener))
Sequence (whole entry): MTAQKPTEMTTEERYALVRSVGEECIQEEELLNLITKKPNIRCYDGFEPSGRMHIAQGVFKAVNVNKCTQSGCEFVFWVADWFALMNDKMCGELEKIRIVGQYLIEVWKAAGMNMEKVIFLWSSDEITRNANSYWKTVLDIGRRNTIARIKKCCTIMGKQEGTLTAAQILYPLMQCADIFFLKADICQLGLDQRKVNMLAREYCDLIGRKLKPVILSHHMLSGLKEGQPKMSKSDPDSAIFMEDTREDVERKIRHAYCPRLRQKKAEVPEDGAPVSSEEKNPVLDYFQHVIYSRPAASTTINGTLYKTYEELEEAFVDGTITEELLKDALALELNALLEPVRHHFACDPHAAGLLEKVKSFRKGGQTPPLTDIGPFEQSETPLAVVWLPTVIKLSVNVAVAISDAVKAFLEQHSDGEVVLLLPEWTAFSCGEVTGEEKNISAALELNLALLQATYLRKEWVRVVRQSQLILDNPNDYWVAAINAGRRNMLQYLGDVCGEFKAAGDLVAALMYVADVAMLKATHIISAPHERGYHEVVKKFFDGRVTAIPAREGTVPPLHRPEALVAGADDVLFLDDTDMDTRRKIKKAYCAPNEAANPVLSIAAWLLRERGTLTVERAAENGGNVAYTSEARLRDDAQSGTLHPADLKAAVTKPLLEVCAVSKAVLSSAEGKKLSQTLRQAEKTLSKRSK
assaySummary: Trypanosoma cruzi tyrosyl tRNA synthetase (TcYRS) _High Tyrosine SOP; further: in the data most compounds retested in dose-response had high values
Format: functional
Set-up: scale not given: direction of the effect not stated beside the values
appliedConditions: 30 µM
endpoint: Percent Effect (%)
# output: bare number, implied unit %

# Percent Effect lookup, item CCc1cccc(OCC(=O)N2CCCC(n3cncn3)C2)c1 (configuration not stated)
5.42

Thanks! And Cc1ccsc1C(=O)N1CC(C(=O)N2CCOCC2)C2(CCOCC2)C1 (configuration not stated) ?
-4.23

Thanks! And CCCc1n[nH]c(C2CN(Cc3nnc(C4CC4)o3)CCO2)n1 (configuration not stated) ?
3.45

Thanks! And COc1ccc(CN2C[C@@H](N(C)Cc3ccco3)[C@H]3OCCC[C@H]32)cc1 ?
3.19

Thanks! And CN(C)C(=O)CNC(=O)CCn1ncc2c(Cl)cccc21 ?
2.12

Thanks! And CN(Cc1nnc(C2CC2)n1C)C1CCN(CCc2cccs2)C1 (configuration not stated) ?
2.08

Thanks! And O=C(CCc1cc2n(n1)CCCN(Cc1ccccc1F)C2)NC1CC1 ?
2.1
